The entries below come with measured inhibition values attached.
Molecular target: Protein deacetylase HDAC6 (Homo sapiens) (UniProt Q9UBN7)
Sequence (Q9UBN7 whole entry): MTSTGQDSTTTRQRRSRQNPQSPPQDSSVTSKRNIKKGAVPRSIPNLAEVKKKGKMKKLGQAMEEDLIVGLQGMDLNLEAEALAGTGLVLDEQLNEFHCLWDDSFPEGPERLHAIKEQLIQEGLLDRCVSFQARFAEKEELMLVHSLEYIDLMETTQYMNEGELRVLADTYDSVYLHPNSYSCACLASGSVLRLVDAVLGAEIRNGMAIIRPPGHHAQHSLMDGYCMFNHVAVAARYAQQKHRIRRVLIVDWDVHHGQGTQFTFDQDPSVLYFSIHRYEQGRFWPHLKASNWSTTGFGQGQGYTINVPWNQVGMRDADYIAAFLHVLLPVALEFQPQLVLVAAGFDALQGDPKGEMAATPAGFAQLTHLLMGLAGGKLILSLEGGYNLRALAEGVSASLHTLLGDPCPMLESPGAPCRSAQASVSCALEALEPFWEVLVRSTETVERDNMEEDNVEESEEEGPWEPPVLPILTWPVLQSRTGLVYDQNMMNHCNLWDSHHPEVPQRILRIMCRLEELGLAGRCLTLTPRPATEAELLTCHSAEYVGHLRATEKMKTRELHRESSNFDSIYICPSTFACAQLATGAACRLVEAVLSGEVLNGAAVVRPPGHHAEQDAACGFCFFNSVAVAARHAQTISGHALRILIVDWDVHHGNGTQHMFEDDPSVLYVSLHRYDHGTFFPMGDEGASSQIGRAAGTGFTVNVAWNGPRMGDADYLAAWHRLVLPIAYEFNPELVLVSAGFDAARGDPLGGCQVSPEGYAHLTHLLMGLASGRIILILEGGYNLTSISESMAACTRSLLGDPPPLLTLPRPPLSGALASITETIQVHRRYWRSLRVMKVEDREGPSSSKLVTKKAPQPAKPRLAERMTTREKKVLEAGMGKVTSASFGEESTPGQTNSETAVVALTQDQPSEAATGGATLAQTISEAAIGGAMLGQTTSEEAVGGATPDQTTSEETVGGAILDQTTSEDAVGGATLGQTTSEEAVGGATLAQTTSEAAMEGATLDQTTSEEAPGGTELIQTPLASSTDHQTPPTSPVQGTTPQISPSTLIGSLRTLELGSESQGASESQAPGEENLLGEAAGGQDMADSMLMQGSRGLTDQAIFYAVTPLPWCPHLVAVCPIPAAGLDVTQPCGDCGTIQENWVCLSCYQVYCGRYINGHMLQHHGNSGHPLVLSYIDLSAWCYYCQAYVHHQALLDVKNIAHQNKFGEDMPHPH
Conditions: at 10 µM
The whole screen tested about 5,600 compounds, of which about 390 (7%) showed an effect of 50% or more. Only a selection was taken, and strong results are over-represented in it overall.
Please answer using the number first and the unit second.

Some solved cases for reference:
* CCCCOCCOc1nc(-c2ccc(C(=O)O)c(F)c2)sc1C | 3.39%
* O=C(/C=C/C=C/c1ccc2c(c1)OCO2)N1CCCCC1 | 115%
* CC(C)(C)c1ccc(CN(Cc2cccc(OCC(=O)O)c2)S(=O)(=O)c2cccnc2)cc1 | 3.1%
* CC(C)(C)c1ccc(/C=C/C(=O)Nc2ccc3c(c2)OCCO3)cc1 | -7.4%
* CC(C)(C)C(O)/C=C/c1ccc2c(c1)OCO2 (stereo unspecified) | 15.9%

Here is the next item to consider.
## Task What value of inhibition has been reported for the following compound? Cc1nc(-c2ccc(OCC(C)C)c(C#N)c2)sc1C(=O)O
## Result 94.2%
